Reported TGI values for a set of compounds
System: MCF7 breast
ASSAY_NOTES: NCI tumour cell line growth inhibition, 48 h

Q: Missing value: TGI, MCF7 breast, entry `CC(C)(C)OC(=O)N/C(C=O)=C\C1CCCCC1` . Fill in?
Ans: 72.8 µM

Q: Missing value: TGI, MCF7 breast, entry CC(C)(C)C1CCC2c3c([nH]c4ccccc34)C3C(=O)N(c4ccc(C#N)cc4)C(=O)C3C2C1 (stereo not drawn) . Fill in?
Ans: > 100 µM

Q: Missing value: TGI, MCF7 breast, entry `Cn1cccc1-c1ccc(-c2ccc(CO)[se]2)[se]1` . Fill in?
Ans: > 40 µM

Q: Missing value: TGI, MCF7 breast, entry `N#CC(CCN1CCC(Nc2ccccc2)(c2nnnn2C2CCCCC2)CC1)(c1ccccc1)c1ccccc1` . Fill in?
Ans: > 100 µM

Q: Missing value: TGI, MCF7 breast, entry `O=C(/C(=C(/O)c1ccccc1)c1nc2ccccc2sc1=O)c1ccccc1` . Fill in?
Ans: 75.5 µM

Q: Missing value: TGI, MCF7 breast, entry `CCCCCCCCCCCC1=NC(C)(C)CN1C(C)(C)CO` . Fill in?
Ans: 5.64 µM

Q: Missing value: TGI, MCF7 breast, entry COC(=O)C1CC2(C)C=CC1N(C(=O)OCc1ccccc1)C2 (stereo not drawn) . Fill in?
Ans: > 100 µM

Q: Missing value: TGI, MCF7 breast, entry `COc1ccc(C(=O)Cn2c(C(=O)c3ccccc3)nc3ccccc32)cc1` . Fill in?
Ans: > 100 µM

---

Tested on: UO-31 renal
ASSAY_NOTES: NCI tumour cell line growth inhibition, 48 h
VALUE_TYPE: log10(TGI) (log10 of the value in µM)
Answers are given as log10 of TGI in µM.

See these solved cases before continuing.
* O=c1[nH]nc(-c2ccccc2)n1/N=C/c1ccc([N+](=O)[O-])o1 | 1.11
* CCCCc1ccc(Nc2ncc3ncn(COCCO)c3n2)cc1 | 1.77
* COC1C(OC(=O)c2ccc(C)[nH]2)C(O)C(Oc2ccc3c(O)c(NC(=O)c4c[nH]c(C(=O)Nc5c(O)c6ccc(OC7OC(C)(C)C(OC)C(OC(=O)c8ccc(C)[nH]8)C7O)c(C)c6oc5=O)c4C)c(=O)oc3c2C)OC1(C)C (centres undefined) | 0.47

Q: Item under review: `Cc1c(C(=O)c2ccc(N)c3ccccc23)c2ccccc2n1CCN1CCOCC1` . Reported log10(TGI)?
Ans: 1.94

Q: Item under review: `COC(=O)c1c2c(c(C)[n+]([O-])c1C)C(=O)C=C(NCc1ccccc1)C2=O` . Reported log10(TGI)?
Ans: 0.42

Q: Item under review: CNC(=O)NCC1OC(n2cnc3c(NC(=O)Nc4ccccc4)ncnc32)C(O[Si](C)(C)C(C)(C)C)C1O[Si](C)(C)C(C)(C)C (centres undefined) . Reported log10(TGI)?
Ans: 0.98

Q: Item under review: `COc1ccc2c(c1)nc(NNC(=O)c1cnccn1)c1cccn12` . Reported log10(TGI)?
Ans: 0.18

Q: Item under review: C#C[C@]1(O)CC[C@H]2[C@@H]3CCC4=C/C(=N/NC(=O)c5cccc6c(=O)c7ccccc7[nH]c56)CCC4[C@H]3CC[C@@]21C (some centres undefined) . Reported log10(TGI)?
Ans: 1.88

Q: Item under review: `O=C(NNC(=S)Nc1ccccc1)c1nsc2ccccc12` . Reported log10(TGI)?
Ans: 1.88
